Conditions: human, Caco-2, pH 6.5
Measured Papp A→B at 20 μM by item
The reply should contain only the number, in nm/s.

Consider the worked cases shown below.
chemical_string=CC(C)(C)OC(=O)N1CCN(c2cncc(O[C@H]3CC[C@H](Nc4ccc([N+](=O)[O-])c(C(F)(F)F)c4)CC3)c2)CC1 measurement_kind="Papp A→B at 20 μM" observed=20.7
chemical_string=CC(C)(C)OC(=O)N1CCN(c2ccnc(O[C@H]3CC[C@H](Nc4ccc([N+](=O)[O-])c(C(F)(F)F)c4)CC3)c2)CC1 measurement_kind="Papp A→B at 20 μM" observed=7.8
chemical_string=O=C(Cc1ccc(F)cc1)N1CCN(c2ccnc(O[C@H]3CC[C@H](Nc4ccc([N+](=O)[O-])c(C(F)(F)F)c4)CC3)c2)CC1 measurement_kind="Papp A→B at 20 μM" observed=10.9
chemical_string=CCCCC(=O)N1CCN(c2ccnc(O[C@H]3CC[C@H](Nc4ccc([N+](=O)[O-])c(C(F)(F)F)c4)CC3)c2)CC1 measurement_kind="Papp A→B at 20 μM" observed=39.9
chemical_string=CCCCC(=O)N1CCN(c2cc(O[C@H]3CC[C@H](Nc4ccc([N+](=O)[O-])c(C(F)(F)F)c4)CC3)ccn2)CC1 measurement_kind="Papp A→B at 20 μM" observed=58.1

Return value of Papp A→B at 20 μM for input `CCCOC(=O)N1CCN(c2cncc(O[C@H]3CC[C@H](Nc4ccc([N+](=O)[O-])c(C(F)(F)F)c4)CC3)c2)CC1` , no commentary.
34.5

Please supply the value of reported Papp A→B at 20 μM for the item `O=[N+]([O-])c1ccc(N[C@H]2CC[C@H](Oc3cncc(N4CCN(Cc5ccc(F)cc5)CC4)c3)CC2)cc1C(F)(F)F`
18.4

Return the recorded Papp A→B at 20 μM value; entry: `O=[N+]([O-])c1ccc(N[C@H]2CC[C@H](Oc3cncc(N4CCN(Cc5ccc(C(F)(F)F)cc5)CC4)c3)CC2)cc1C(F)(F)F`
5.3

Answer with reported Papp A→B at 20 μM of `CC(C)(C)CC(=O)N1CCN(c2cncc(O[C@H]3CC[C@H](Nc4ccc([N+](=O)[O-])c(C(F)(F)F)c4)CC3)c2)CC1`
49.9

Specify Papp A→B at 20 μM for `CC(C)(C)OC(=O)N1CCN(c2cc(O[C@H]3CC[C@H](Nc4ccc([N+](=O)[O-])c(C(F)(F)F)c4)CC3)ccn2)CC1` and stop.
17.7

----------
Recorded inhibition at 1 ppm by entry
Tested on: microfilaria of Dirofilaria immitis
Test: Method C: microfilaria of Dirofilaria immitis motility screen
Type: cell-based
Settings: 24 h, read-out: inhibition of the microfilaria's motility

Determine from records and report inhibition at 1 ppm for `CCCNC(=S)N1CCN(c2ccnc(O[C@H]3CC[C@H](Nc4ccc([N+](=O)[O-])c(C(F)(F)F)c4)CC3)c2)CC1`
≥ 90%

Please look at this compound and report its inhibition at 1 ppm: `O=[N+]([O-])c1ccc(N[C@H]2CC[C@H](Oc3cc(N4CCN(C(=S)NC5CCCC5)CC4)ccn3)CC2)cc1C(F)(F)F`
≥ 90%

Return reported inhibition at 1 ppm. Input compound: `O=[N+]([O-])c1ccc(N[C@H]2CC[C@H](Oc3ccnc(N4CCN(Cc5ccc(C(F)(F)F)cc5)CC4)c3)CC2)cc1C(F)(F)F`
≥ 90%

For the compound `O=[N+]([O-])c1ccc(N[C@H]2CC[C@H](Oc3ccc(N4CCN(C/C=C/c5ccc(C(F)(F)F)cc5)CC4)nc3)CC2)cc1C(F)(F)F` , report inhibition at 1 ppm.
≥ 90%

----------
Details: human, Caco-2, pH 6.5
Papp A→B at 20 μM strictly under 3 ×10⁻⁶ cm/s means 1; at 3 ×10⁻⁶ cm/s or over means -1.

The following compounds have reported results that may help.
compound=O=[N+]([O-])c1ccc(N[C@H]2CC[C@H](Oc3ccnc(N4CCN(CC5CCCC5)CC4)c3)CC2)cc1C(F)(F)F assigned_label=1
compound=CCCOC(=O)N1CCN(c2ccnc(O[C@H]3CC[C@H](Nc4ccc([N+](=O)[O-])c(C(F)(F)F)c4)CC3)c2)CC1 assigned_label=1
compound="N#Cc1ccc(NC2CCC(Oc3cncc(N4CCN(c5ccc(C(F)(F)F)cn5)CC4)c3)CC2)cc1C(F)(F)F (stereo not shown)" assigned_label=1
compound=CCCC(=O)N1CCN(c2cncc(O[C@H]3CC[C@H](Nc4ccc([N+](=O)[O-])c(C(F)(F)F)c4)CC3)c2)CC1 assigned_label=-1
compound=O=C(Oc1ccc(F)cc1)N1CCN(c2cncc(O[C@H]3CC[C@H](Nc4ccc([N+](=O)[O-])c(C(F)(F)F)c4)CC3)c2)CC1 assigned_label=1
compound=O=C(CCC(F)(F)F)N1CCN(c2cc(O[C@H]3CC[C@H](Nc4ccc([N+](=O)[O-])c(C(F)(F)F)c4)CC3)ccn2)CC1 assigned_label=-1
compound=O=[N+]([O-])c1ccc(N[C@H]2CC[C@H](Oc3ccc(N4CCN(c5ccc6cc(C(F)(F)F)ccc6n5)CC4)nc3)CC2)cc1C(F)(F)F assigned_label=1
compound=O=[N+]([O-])c1ccc(N[C@H]2CC[C@H](Oc3cncc(N4CCN(CC5CCCC5)CC4)c3)CC2)cc1C(F)(F)F assigned_label=1

Regarding `O=C(CC1CCCC1)N1CCN(c2cc(O[C@H]3CC[C@H](Nc4ccc([N+](=O)[O-])c(C(F)(F)F)c4)CC3)ccn2)CC1` , kindly confirm whether its Papp A→B at 20 μM is beneath 3 ×10⁻⁶ cm/s.
1

Please state whether Papp A→B at 20 μM is below 3 ×10⁻⁶ cm/s for `O=C(CC1CCCCC1)N1CCN(c2cc(O[C@H]3CC[C@H](Nc4ccc([N+](=O)[O-])c(C(F)(F)F)c4)CC3)ccn2)CC1`
1

----------
Settings: human, Caco-2, pH 6.5
measurement_kind: Papp A→B at 20 μM (×10⁻⁶ cm/s)
# output: bare number, implied unit ×10⁻⁶ cm/s

Use the examples below as a reference point.
molecule="O=C(Cc1ccc(F)cc1)N1CCN(c2cncc(O[C@H]3CC[C@H](Nc4ccc([N+](=O)[O-])c(C(F)(F)F)c4)CC3)c2)CC1 [Compound 22]" observed=1.57
molecule="O=C(OC1CCCC1)N1CCN(c2ccnc(O[C@H]3CC[C@H](Nc4ccc([N+](=O)[O-])c(C(F)(F)F)c4)CC3)c2)CC1 [Compound 9]" observed=1.08

Please report the measured Papp A→B at 20 μM for O=C(CC1CCC1)N1CCN(c2cc(O[C@H]3CC[C@H](Nc4ccc([N+](=O)[O-])c(C(F)(F)F)c4)CC3)ccn2)CC1 [Compound 8]
4.01
